molecular target: human catalytic domain HDAC4 protein (amino acids 648-1032) (Homo sapiens (Human)); assay: HDAC4 catalytic domain enzymatic activity, fluorogenic substrate Boc-Lys(TFA)-AMC; conditions: read-out: HDAC4 Biochemical IC50
Sequence (P56524 648-1032): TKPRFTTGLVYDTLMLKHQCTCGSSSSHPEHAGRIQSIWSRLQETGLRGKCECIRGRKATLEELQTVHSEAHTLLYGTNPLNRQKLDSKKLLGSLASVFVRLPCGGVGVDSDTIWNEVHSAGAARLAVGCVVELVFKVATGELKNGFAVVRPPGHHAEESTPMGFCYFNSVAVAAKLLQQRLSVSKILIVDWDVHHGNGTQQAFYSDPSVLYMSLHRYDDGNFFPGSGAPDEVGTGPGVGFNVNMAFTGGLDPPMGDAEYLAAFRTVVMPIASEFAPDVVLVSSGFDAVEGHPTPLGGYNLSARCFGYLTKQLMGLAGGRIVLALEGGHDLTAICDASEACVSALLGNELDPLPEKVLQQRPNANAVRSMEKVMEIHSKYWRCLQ
Where a name gives a salt, the structure may show the parent alone.
measured attribute: pIC50
Scale note: pIC50 = -log10(concentration in M).

Query block: Find the measured pIC50: item C[C@H](CN1CCCC2(CC2)C1)NC(=O)c1ccc(-c2noc(C(F)(F)F)n2)cc1 , target or system human catalytic domain HDAC4 protein (amino acids 648-1032) (Homo sapiens (Human)).
Result block: 8.52

Query block: Find the measured pIC50: item C[C@H](CN1CC2CCCC2C1)NC(=O)c1ccc(-c2noc(C(F)(F)F)n2)cc1 (stereo partly shown) [Example 17, formate] , target or system human catalytic domain HDAC4 protein (amino acids 648-1032) (Homo sapiens (Human)).
Result block: 7.92

Query block: Find the measured pIC50: item C[C@H](CN1Cc2ccccc2C1)NC(=O)c1ccc(-c2noc(C(F)(F)F)n2)cc1 , target or system human catalytic domain HDAC4 protein (amino acids 648-1032) (Homo sapiens (Human)).
Result block: 7.41

Query block: Find the measured pIC50: item C[C@H](CN1CCC2(CC2)C1)NC(=O)c1ccc(-c2noc(C(F)(F)F)n2)cc1 , target or system human catalytic domain HDAC4 protein (amino acids 648-1032) (Homo sapiens (Human)).
Result block: 8.10
